assay.remarks: Phase I study, pharmacokinetic parameters after oral single dose and daily dose for 7 days
Format: in vivo, human
protocol.conditions: human, in vivo; single dose 10 mg, oral; read-out: Cmax maximum concentration
measured.metric: Cmax (ng/mL)
Enter your answer as a number in ng/mL; do not include the unit.

INPUT: For COc1ccc2[nH]c([S+]([O-])Cc3ncc(C)c(OC)c3C)nc2n1 (stereo not shown) , what is its reported Cmax?
OUTPUT: 900

---

assay.remarks: Phase I study, pharmacokinetic parameters after oral single dose and daily dose for 7 days
Assay type: in vivo, human
protocol.conditions: human, in vivo; repeated dose (7 days) 40 mg daily, oral; read-out: Cmax maximum concentration
measured.metric: Cmax at 7 days (ng/mL)
Enter your answer as a number in ng/mL; do not include the unit.

INPUT: For COc1ccc2[nH]c([S+]([O-])Cc3ncc(C)c(OC)c3C)nc2n1 (stereo not shown) [tenatoprazole] , what is its reported Cmax at 7 days?
OUTPUT: 5500
